- TARGET OR SYSTEM: T1, C-reactive protein (CRP) (Homo sapiens, UniProt P02741 P02741:19-224)
- T1 sequence: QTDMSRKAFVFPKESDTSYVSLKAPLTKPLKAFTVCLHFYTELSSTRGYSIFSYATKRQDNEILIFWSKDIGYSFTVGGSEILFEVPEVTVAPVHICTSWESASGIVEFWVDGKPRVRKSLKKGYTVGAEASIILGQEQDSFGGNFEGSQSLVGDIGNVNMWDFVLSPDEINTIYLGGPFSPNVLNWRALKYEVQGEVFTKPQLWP
- PROCEDURE TEXT: SPR; Biacore X, SA chip with biotinylated aptamer, 10 mM Tris, 50 mM NaCl, 2 mM CaCl2, 25 C, 1:1 Langmuir
- ASSAY SETUP: immobilised on Dynabeads M-450 Epoxy for SELEX, in solution for SPR; chain copies: 5 inferred (pentamer)
MEASURED QUANTITY: pKd
Reminder that pKd means the negative base-10 logarithm of the concentration expressed in mol/L.

Quickly give me recorded pKd for aptamer A (ssDNA, 5'-biotin (SPR and bead assay)) DNA: GGCAGGAAGACAAACACGATGGGGGGGTATGATTTGATGTGGTTGTTGCATGATCGTGGTCTGTGGTGCTGT 8.45

Cited source: patent US20110318846
